For each record, write down the corresponding pIC50.
On this scale, pIC50 is minus log10 of a concentration expressed in M (mol/L).

Q: Look up and report measured pIC50 (Cysteine protease ATG4B (Homo sapiens, UniProt Q9Y4P1)) for the following molecule: CC1=CC(/C=N/n2c(COc3ccccc3)nc3ccccc3c2=O)C(=O)C([N+](=O)[O-])=C1 (configuration not stated)
Ans: 4.64

Q: Look up and report measured pIC50 (Cysteine protease ATG4B (Homo sapiens, UniProt Q9Y4P1)) for the following molecule: Oc1ccc2ccccc2c1CN=Nc1nnc(-c2ncc[nH]2)c2ccccc12 [SMR000151639]
Ans: 5.27

The measured values listed here are drawn from BindingDB's records for doi:10.7270/Q21V5CG8.
